- protocol_text: chemical genetic growth profiling, strain panel (AID 1159580);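 further: tested at 20 µM; growth read once vehicle control cultures reached saturation at 30 °C; 1 = growth at the plate median or of vehicle wells; lower values mean less growth of the strain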
- condition_summary: S. cerevisiae deletion strains, growth OD, locus YBR009C, strain hhf1, stronger effect = lower value
In all, about 5,500 compounds went through this assay and about 2,000 (36%) were called active. Inconclusive results (about 18%) are left out. This is one part of the list.
observed_property: normalized growth
Respond with the number and no other words.

Field: example entries. Status: answers known.
{"molecule": "OC(CCN1CCCC1)(c1ccccc1)C1CCCCC1 (stereo not drawn)", "observed_property": "normalized growth", "observed_value": 1}
{"molecule": "Nc1ccc(S(=O)(=O)Nc2ccnn2-c2ccccc2)cc1", "observed_property": "normalized growth", "observed_value": 1.01}
{"molecule": "Cc1cc(O)cc(C)c1Cl", "observed_property": "normalized growth", "observed_value": 0.873}

Given the molecule Cc1cc(O)cc(O)c1C(=O)O , what is its reported normalized growth? 1.01

Given the molecule COC(=O)Nc1nc2ccc(C(=O)c3ccccc3)cc2[nH]1 , what is its reported normalized growth? 0.898

Given the molecule N#CC(O[C@@H]1O[C@H](CO[C@@H]2O[C@H](CO)[C@@H](O)[C@H](O)[C@H]2O)[C@@H](O)[C@H](O)[C@H]1O)c1ccccc1 (stereo partly drawn) , what is its reported normalized growth? 0.987

Given the molecule OC(CCN1CCCCC1)(c1ccccc1)C1CCCCC1 (stereo not drawn) , what is its reported normalized growth? 0.993

Given the molecule O=c1[nH]cc(F)c(=O)[nH]1 , what is its reported normalized growth? 0.458

Given the molecule OC(CCN1CCCCC1)(c1ccccc1)C1CC2C=CC1C2 (stereo not drawn) , what is its reported normalized growth? 0.985

Given the molecule CC(C)CC(N(C)C)C1(c2ccc(Cl)cc2)CCC1 (stereo not drawn) , what is its reported normalized growth? 1

Given the molecule Cc1cc(O)ccc1Cl , what is its reported normalized growth? 0.999

Given the molecule COC(=O)Nc1nc2ccc(S(=O)c3ccccc3)cc2[nH]1 (stereo not drawn) , what is its reported normalized growth? 0.999

Given the molecule CC(=O)NC(C(=O)O)C(C)(C)SN=O (stereo not drawn) , what is its reported normalized growth? 1
